Would you mind telling me the reported mFT/mE (Anti-IgG), flow-through elution mass ratio of each entry?
System: anti-IgG affibody
Experiment: Affibody binding/elution in non-competitive conditions on peptide–Toyopearl, anti-IgG affibody
Details: 100 μL of 50:50 labeled anti-HSA and anti-IgG affibodies, total 1 mg/mL, in PBS pH 7.4; 50 μL resin; 1 h, room temperature; elution 0.2 M acetate pH 3.8; fluorescence spectroscopy
Where no end group is shown, it is not given here.
Give bare numbers.

1. QAAKRI ... 2.245

Each substance below has a recorded value; state its mFT/mE (Anti-IgG), flow-through elution mass ratio.
1. KSAYHS
2. SHHSQR
3. IGKQRI [IGKQRI]
4. ARISRQ
5. DIHIRR
6. DHHKKA
7. DIRIIR
8. DIRIQR

OUT:
1. 0.405
2. 1.238
3. 0.448
4. 0.885
5. 1.277
6. 1.256
7. 0.707
8. 0.445

IN: What mFT/mE (Anti-IgG), flow-through elution mass ratio appears in the records for this substance with anti-IgG affibody? IHQRGQ
OUT: 0.446
